Recorded LD50 by entry
# Measurement protocol: Acute toxicity (LD50)
# Experimental context: rat, in vivo, po; administered orally; 5 weeks old male Wistar rats

{"Molecule": "COc1cc(C[S+]([O-])c2nc3cc(OCC4CC4)ccc3[nH]2)ncc1C (centres unmarked)", "LD50": "≥ 4000 mg/kg"}

What value of measured LD50 is listed for Cc1cnc(C[S+]([O-])c2nc3cc(OCC4CC4)ccc3[nH]2)c(C)c1 (centres unmarked) ? ≥ 4000 mg/kg

* * *

Recorded LD50 by entry
# Measurement protocol: Acute toxicity (LD50)
# Experimental context: rat, in vivo, ip; administered intraperitoneally; 5 weeks old male Wistar rats

{"Compound": "COc1cc(C[S+]([O-])c2nc3cc(OCC4CC4)ccc3[nH]2)ncc1C (centres unmarked)", "Readout label": "LD50", "Result": "≥ 500 mg/kg"}

Switching to the query record.
What value of measured LD50 is listed for Cc1cnc(C[S+]([O-])c2nc3cc(OCC4CC4)ccc3[nH]2)c(C)c1 (centres unmarked) ? ≥ 500 mg/kg

* * *

Recorded pIC50 by entry
# Measured on: (H^+ +K^+)-ATPase (Sus scrofa)
# Construct: prepared from the fundus ventriculi of fresh hog stomachs
# Sequence (P19156 2-1034 limits assumed): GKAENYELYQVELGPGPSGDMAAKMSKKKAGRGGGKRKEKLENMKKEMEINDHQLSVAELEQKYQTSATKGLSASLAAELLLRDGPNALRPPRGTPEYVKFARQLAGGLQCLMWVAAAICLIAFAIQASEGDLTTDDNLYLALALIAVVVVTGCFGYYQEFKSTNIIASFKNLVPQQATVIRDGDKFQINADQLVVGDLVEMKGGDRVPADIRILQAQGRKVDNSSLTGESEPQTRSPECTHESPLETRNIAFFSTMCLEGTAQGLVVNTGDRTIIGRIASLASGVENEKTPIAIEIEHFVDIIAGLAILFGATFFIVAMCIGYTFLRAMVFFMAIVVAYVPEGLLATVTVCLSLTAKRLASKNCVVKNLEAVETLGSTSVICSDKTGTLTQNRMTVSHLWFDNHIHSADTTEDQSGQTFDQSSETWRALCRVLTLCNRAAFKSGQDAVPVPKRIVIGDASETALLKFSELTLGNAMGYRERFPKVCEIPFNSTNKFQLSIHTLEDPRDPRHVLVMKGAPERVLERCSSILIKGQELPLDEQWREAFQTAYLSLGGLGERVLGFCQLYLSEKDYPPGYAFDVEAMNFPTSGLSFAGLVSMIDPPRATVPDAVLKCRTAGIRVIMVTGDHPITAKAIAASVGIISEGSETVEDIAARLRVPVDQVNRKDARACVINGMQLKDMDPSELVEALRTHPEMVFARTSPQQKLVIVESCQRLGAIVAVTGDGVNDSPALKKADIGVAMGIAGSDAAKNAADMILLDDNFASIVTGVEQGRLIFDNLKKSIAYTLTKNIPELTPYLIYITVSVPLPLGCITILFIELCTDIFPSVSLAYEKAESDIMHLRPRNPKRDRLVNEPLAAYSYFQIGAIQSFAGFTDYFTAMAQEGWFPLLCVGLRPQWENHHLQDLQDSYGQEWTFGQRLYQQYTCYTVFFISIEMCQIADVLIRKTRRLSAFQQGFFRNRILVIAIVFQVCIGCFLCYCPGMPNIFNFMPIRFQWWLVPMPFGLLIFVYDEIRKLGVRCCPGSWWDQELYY
# Sequence (P18434 whole entry partner): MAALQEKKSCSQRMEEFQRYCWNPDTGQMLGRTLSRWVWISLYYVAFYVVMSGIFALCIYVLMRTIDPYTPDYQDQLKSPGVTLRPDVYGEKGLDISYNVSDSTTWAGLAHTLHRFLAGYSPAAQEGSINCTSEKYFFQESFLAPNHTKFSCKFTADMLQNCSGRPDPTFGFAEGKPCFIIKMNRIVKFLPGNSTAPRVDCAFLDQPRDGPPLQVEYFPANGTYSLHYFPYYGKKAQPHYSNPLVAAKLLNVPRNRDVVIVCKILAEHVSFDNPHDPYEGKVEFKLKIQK
# Measurement protocol: (H^+ +K^+)-ATPase inhibiting activity
# Experimental context: enzyme from hog fundus ventriculi; incubation with compound 35° to 37° C., 5 to 30 minutes
Keep it numeric: pIC50 is minus log10 of the concentration in mol/L.

Checklist item: pIC50 tested on (H^+ +K^+)-ATPase (Sus scrofa), entry COc1cc(C[S+]([O-])c2nc3cc(OCC4CC4)ccc3[nH]2)ncc1C (stereo not shown) [Example 8] , value? 3.52

Checklist item: pIC50 tested on (H^+ +K^+)-ATPase (Sus scrofa), entry Cc1cnc(C[S+]([O-])c2nc3cc(OCC4CC4)ccc3[nH]2)c(C)c1 (stereo not shown) [Example 1] , value? 2.74

Checklist item: pIC50 tested on (H^+ +K^+)-ATPase (Sus scrofa), entry Cc1cnc(C[S+]([O-])c2nc3c(OCC4CC4)cccc3[nH]2)c(C)c1 (stereo not shown) [Example 3] , value? 3.05

Checklist item: pIC50 tested on (H^+ +K^+)-ATPase (Sus scrofa), entry Cc1cnc(C[S+]([O-])c2nc3c(OCC4CC4)cccc3[nH]2)c(C)c1C (stereo not shown) [Example 5] , value? 2.72

Checklist item: pIC50 tested on (H^+ +K^+)-ATPase (Sus scrofa), entry Cc1cnc(C[S+]([O-])c2nc3cc(OCC4CC4)ccc3[nH]2)c(C)c1C (stereo not shown) [Example 4] , value? 3.00

Checklist item: pIC50 tested on (H^+ +K^+)-ATPase (Sus scrofa), entry Cc1ccnc(C[S+]([O-])c2nc3cc(OCC4CC4)ccc3[nH]2)c1 (stereo not shown) [Example 2] , value? 2.68

Checklist item: pIC50 tested on (H^+ +K^+)-ATPase (Sus scrofa), entry COc1c(C)cnc(C[S+]([O-])c2nc3cc(OCC4CC4)ccc3[nH]2)c1C (stereo not shown) [Example 7] , value? 2.77

Checklist item: pIC50 tested on (H^+ +K^+)-ATPase (Sus scrofa), entry COc1c(C)cnc(C[S+]([O-])c2nc3c(OCC4CC4)cccc3[nH]2)c1C (stereo not shown) [Example 6] , value? 2.72

Checklist item: pIC50 tested on (H^+ +K^+)-ATPase (Sus scrofa), entry COc1cc(C[S+]([O-])c2nc3c(OCC4CC4)cccc3[nH]2)ncc1C (stereo not shown) [Example 9] , value? 3.37

Checklist item: pIC50 tested on (H^+ +K^+)-ATPase (Sus scrofa), entry COc1ccc2[nH]c([S+]([O-])Cc3ncc(C)c(OC)c3C)nc2c1 (stereo not shown) [Omeprazole, reference compound] , value? 2.74
